Experiment: small-molecule microarray binders of probe aDKK1, primary screen, biochemical, biotinylated probe, 635/667 nm fluorescence (AID 1099);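 further: score merges 667nm spot fluorescence with signal to noise across triplicate slides; reference of the scale not given here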
Settings: higher = more signal
Can you tell me composite z-score for the items I'm about to list?
Give the figure only, with no unit attached.

Given the molecule CCN(CC)c1ccc(N2CC=CC34O[C@@H]5/C=C\CCC(C)OC(=O)C5[C@H]3C(=O)N(C(CO)C(C)C)[C@@H]4C2=O)cc1 (some centres undefined) , write its reported composite z-score.
-0.204

Given the molecule CCN(CC)c1ccc(N2CC=CC34O[C@@H]5/C=C\CCCOC(=O)C5[C@H]3C(=O)N(CCO)[C@@H]4C2=O)cc1 (some centres undefined) , write its reported composite z-score.
-0.221

Given the molecule C=CCNC(=O)[C@H]1[C@@H]2C(=O)O[C@@H](c3ccccc3)[C@@H](c3ccccc3)N2[C@@H](c2ccc(OCCO)cc2)[C@]12C(=O)Nc1ccc(C#CC3=CCCCC3)cc12 , write its reported composite z-score.
-0.488

Given the molecule CC(C)C[C@@H]1NC(=O)[C@H]2C[C@@H](C(=O)NCCCCCCN(C)C)[C@@H](c3ccc(O)cc3)N2C1=O , write its reported composite z-score.
0.158

Origin of values: PubChem BioAssay
